From: paper PMC7325368

method description: Plasma pharmacokinetics in patients
Assay type: in vivo
condition info: human, oral
measure name: half-life

Looking up `O=C1CCc2c(Oc3ccc4c(c3)[C@@H]3[C@H](O4)[C@H]3c3nc4ccc(C(F)(F)F)cc4[nH]3)ccnc2N1` , I found its half-life recorded as 15 to 59 h

----------
method description: Plasma pharmacokinetics in patients
Type: in vivo
condition info: human, po
measure name: Tmax (h)
Just the number please, in h, no unit attached.

Looking up O=C1CCc2c(Oc3ccc4c(c3)[C@@H]3[C@H](O4)[C@H]3c3nc4ccc(C(F)(F)F)cc4[nH]3)ccnc2N1 [lifirafenib] , I found its Tmax recorded as 3
